Quick reference: Kd of the listed items.
target: T1, PSD-95 PDZ2 (aa 155-249) (UniProt P78352 155-249); assay: SPR; PDZ domain immobilised by amine coupling (CM5 for PDZ1 and PDZ2, CM4 for PDZ3), peptides injected; Biacore X100, 25.0°C, HBS-EP+ (10 mM HEPES pH 7.4, 150 mM NaCl, 3 mM EDTA, 0.05% Surfactant P-20); 1 mM DTT for peptides with a cysteine; Kd from steady-state responses, 1:1 model with a linear component; conditions: both partners purified
T1 construct: postsynaptic density protein 95 (PSD-95), PDZ2, aa 155-249
T1 sequence (P78352 155-249): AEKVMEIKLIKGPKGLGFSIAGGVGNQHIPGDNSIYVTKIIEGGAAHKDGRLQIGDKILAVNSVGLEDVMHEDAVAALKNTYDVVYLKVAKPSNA
Your answer should be a plain number; it is taken to be in µM.

{"BINDER": "YDDRSVVSERISSV (N-terminal linker; YDDR because the C-tail has no Tyr or Trp, by the rule of the methods; 5-hydroxytryptamine receptor 2C, human, 10 C-terminal aa; source: synthetic peptide (Schafer-N)) [5-HTR2C C-tail peptide (human)]", "RECORDED METRIC": "Kd", "OBSERVED MEASUREMENT": 62}
{"BINDER": "YDDRRNCSTNDSLL (N-terminal linker; YDDR because the C-tail has no Tyr or Trp, by the rule of the methods; β2-adrenergic receptor, human, 10 C-terminal aa; source: synthetic peptide (Schafer-N)) [β2AR C-tail peptide (human)]", "RECORDED METRIC": "Kd", "OBSERVED MEASUREMENT": 2090}
{"BINDER": "YEKLSSIESDV (No YDDR/DDR linker is told for this peptide; also called NR2B) [GluN2B C-tail peptide (human), unlabeled]", "RECORDED METRIC": "Kd", "OBSERVED MEASUREMENT": 1.4}
{"BINDER": "YDDRRPGFASESKV (N-terminal linker; YDDR because the C-tail has no Tyr or Trp, by the rule of the methods; β1-adrenergic receptor, human, 10 C-terminal aa; also called β1-adrenergic receptor; source: synthetic peptide (Schafer-N)) [β1AR C-tail peptide (human)]", "RECORDED METRIC": "Kd", "OBSERVED MEASUREMENT": 180}
{"BINDER": "YDDRDGVNEKVSCV (N-terminal linker; YDDR because the C-tail has no Tyr or Trp, by the rule of the methods; 5-hydroxytryptamine receptor 2A, human, 10 C-terminal aa; also called 5-hydroxytryptamine receptor 2A; source: synthetic peptide (Schafer-N)) [5-HTR2A C-tail peptide (human)]", "RECORDED METRIC": "Kd", "OBSERVED MEASUREMENT": 110}
{"BINDER": "YDDRQDIIDLQTEV (N-terminal linker; YDDR because the C-tail has no Tyr or Trp, by the rule of the methods; BAI1 receptor, human, 10 C-terminal aa; also called BAI1 receptor; source: synthetic peptide (Schafer-N)) [BAI1 C-tail peptide (human)]", "RECORDED METRIC": "Kd", "OBSERVED MEASUREMENT": 74}

Incoming: Provide one value: measured Kd of YDDRGTCTSRITTL (N-terminal linker; YDDR because the C-tail has no Tyr or Trp, by the rule of the methods; somatostatin receptor 1, human, 10 C-terminal aa; also called hSSTR1; source: synthetic peptide (Schafer-N)) [SSTR1 C-tail peptide (human)]
Outgoing: 76

Incoming: Complete the entry with Kd for YDDRNLKAGRETTV (N-terminal linker (solubility, concentration determination); YDDR because the C-tail has no Tyr or Trp, by the rule of the methods; source: synthetic peptide (Schafer-N)) [KIF1Bα C-tail peptide (human), unlabeled]
Outgoing: 1.1
